- ASSAY METHOD TEXT: Biodistribution of labeled radioligands in male Sprague-Dawley rats
- Format: in vivo
- STUDY CONDITIONS: 10 min post-injection; mean ± SD, n = 3
Measured % ID/g Striatum by item
QUANTITY KIND: % ID/g Striatum (% ID/g)

>>> print(df.to_string())
                                   compound  value_measured
0  CN(C)Cc1ccccc1Sc1ccc([18F])cc1N [[^18F]AFA]            0.65
1  CN([11CH3])Cc1ccccc1Sc1ccc(F)cc1N [[^11C]AFA]            0.54
2  CN([11CH3])Cc1ccccc1Sc1ccc(CF)cc1N [[^11C]AFM]            0.72
3  Cc1ccc(Sc2ccccc2CN(C)[11CH3])c(N)c1 [[^11C]MADAM]            1.57
4  CN(C)Cc1ccccc1Sc1ccc(CC[18F])cc1N [[^18F]AFE]            0.51
5  CN(C)Cc1ccccc1Sc1ccc(C[18F])cc1N [[^18F]AFM]            0.69
6  CN(C)Cc1ccccc1Sc1ccc(CCF)cc1N [[^11C]AFE]            0.58

###

- System: SERT
- ASSAY METHOD TEXT: Baboon PET imaging: brain uptake, kinetic analysis and SERT parameters
- Type: in vivo
- STUDY CONDITIONS: male, baboon, brain, cingulate cortex, intravenous; one-tissue compartment model; baboons, mean ± SD of four experiments; read-out: VT Cingulate Cortex
QUANTITY KIND: Kp

>>> df
                                   compound  quantity_kind  value_measured
0  CN(C)Cc1ccccc1Sc1ccc(C#N)cc1N [[^11C]DASB]             Kp            21.1
1  CN(C)Cc1ccccc1Sc1ccc(Br)cc1N [[^11C]DAPA]             Kp            37.1
2  CN(C)Cc1ccccc1Sc1ccc(I)cc1N [[^11C]ADAM]             Kp            37.3

###

- Tested on: SERT
- ASSAY METHOD TEXT: Baboon PET imaging: brain uptake, kinetic analysis and SERT parameters
- Format: in vivo
- STUDY CONDITIONS: baboons, mean ± SD of four experiments
Label 1.0 when Regional uptake peak time Midbrain is strictly below 50 min; otherwise label 0.0.

>>> df
                                   compound  target_of_assay  category
0  CN(C)Cc1ccccc1Sc1ccc(Br)cc1N [[^11C]DAPA]             SERT       0.0
1  [11CH3]Sc1ccc([C@H]2CN3CCC[C@H]3c3ccccc32)cc1 [[^11C]McN 5652]             SERT       1.0
2  CN(C)Cc1ccccc1Sc1ccc(C#N)cc1N [[^11C]DASB]             SERT       1.0
3  CN([11CH3])Cc1ccccc1Sc1ccc(CF)cc1N [[^11C]AFM]             SERT       0.0

###

Measured Regional activity wash-out: % decrease from peak to last scan, Temporal Cortex by item
- System: SERT
- ASSAY METHOD TEXT: Baboon PET imaging: brain uptake, kinetic analysis and SERT parameters
- Assay type: in vivo
- STUDY CONDITIONS: last scan 90 minutes; baboons, mean ± SD of four experiments
- Experimental: PET imaging protocol: PET experiments (n=20) were performed at Columbia University. Two adult male baboons (baboon A and B) were studied twice with each of the 5 radioligands (4 experiments per radioligand). […] Experiments were performed according to protocols approved by the Columbia-Presbyterian Medical Center Institutional Animal Care and Use Committee. […] Vital signs were monitored every 10 minutes and the temperature was kept constant at 37° C. with heated water blankets. […]
QUANTITY KIND: Regional activity wash-out: % decrease from peak to last scan, Temporal Cortex (%)

                                   molecule  value_measured
0  CN(C)Cc1ccccc1Sc1ccc(C#N)cc1N [[^11C]DASB]              58
1  [11CH3]Sc1ccc([C@H]2CN3CCC[C@H]3c3ccccc32)cc1 [[^11C]McN 5652]              24
2  CN(C)Cc1ccccc1Sc1ccc(I)cc1N [[^11C]ADAM]              25
3  CN([11CH3])Cc1ccccc1Sc1ccc(CF)cc1N [[^11C]AFM]              36
4  CN(C)Cc1ccccc1Sc1ccc(Br)cc1N [[^11C]DAPA]              11

Values compiled from patent US20110097274A1.
